# Study target: glucocerebrosidase (Gcase) (Homo sapiens, UniProt P04062)
# Construct: micellar solution containing 10 nM GCase and 100 nM saposin C
# Method: Glucocerebrosidase (Gcase) activation assay, 4-methylumbelliferyl-beta-D-glucopyranoside substrate, fluorescence readout
# Assay type: biochemical
# Test conditions: test compound at 0.1 μM; read-out: Percent Gcase Activation, 0.1 μM Test Compound
Readout: activation at 0.1 µM

> print(dat)
                                   compound  value.observed
1  Cc1cc(C)n2ccc(C(=O)Nc3ccc4c(c3)C(Oc3cccnc3)CC4)c2n1 (stereo not shown)           > 20%
2  CO[C@H]1CC[C@@H](C(C)(C)NC(=O)c2ccn3c(C)cc(Cl)nc23)CC1           > 20%
3  CCOCCO[C@H]1CC[C@H](NC(=O)c2ccn3c(C)cc(C)nc23)CC1           < 10%
4  Cc1cc(C)n2ccc(C(=O)NC3CCC(c4ncco4)CC3)c2n1 (stereo not shown)           < 10%
5  Cc1cc(C)n2ccc(C(=O)NC3CCOc4ccccc43)c2n1 (stereo not shown)       10 to 20%

Note to self: activation at 0.1 µM of `Cc1ccnc2c(C(=O)N[C@H]3CCCc4ccccc43)ccn12` with glucocerebrosidase (Gcase) (Homo sapiens, UniProt P04062) was > 20%

Note to self: activation at 0.1 µM of `Cc1cc(C)n2ccc(C(=O)N[C@H]3CC[C@H](Oc4cccs4)CC3)c2n1` with glucocerebrosidase (Gcase) (Homo sapiens, UniProt P04062) was 10 to 20%

Note to self: activation at 0.1 µM of `Cc1cc(C)n2ccc(C(=O)Nc3ccc(C)c(-c4ncco4)c3)c2n1` with glucocerebrosidase (Gcase) (Homo sapiens, UniProt P04062) was > 20%

Note to self: activation at 0.1 µM of `Cc1cc(C)n2ccc(C(=O)Nc3ccc(Cl)c(COc4cccnc4)c3)c2n1` with glucocerebrosidase (Gcase) (Homo sapiens, UniProt P04062) was > 20%

Note to self: activation at 0.1 µM of Cc1cc(C)n2ccc(C(=O)NC3CCC4(CCCO4)C3)c2n1 (stereo not shown) with glucocerebrosidase (Gcase) (Homo sapiens, UniProt P04062) was < 10%

---

# Study target: glucocerebrosidase (Gcase) (Homo sapiens, UniProt P04062)
# Construct: micellar solution containing 10 nM GCase and 100 nM saposin C
# Method: Glucocerebrosidase (Gcase) activation assay, 4-methylumbelliferyl-beta-D-glucopyranoside substrate, fluorescence readout
# Format: biochemical
# Test conditions: test compound at 0.1 μM; read-out: Percent Gcase Activation, 0.1 μM Test Compound
Readout: activation at 0.1 µM

Please review the entries below; each comes with its answer.
> print(dat)
                                   compound  value.observed
1  CCCCCC(=O)N1C2CCC1CC(NC(=O)c1ccn3c(C)cc(C)nc13)C2 (stereo not shown)           < 10%
2  Cc1cc(C)n2ccc(C(=O)NC3CCCc4ccc(-c5cocn5)cc43)c2n1 (stereo not shown)       10 to 20%
3  COC1CCCCC1NC(=O)c1ccn2c(C)cc(C)nc12 (stereo not shown)           < 10%
4  COCCOc1ccc2c(c1)C(NC(=O)c1ccn3c(C)cc(C)nc13)CCO2 (stereo not shown)           < 10%

response.value for `Cc1cc(C)n2ccc(C(=O)N[C@@H](C)c3ccccc3)c2n1` (field: activation at 0.1 µM) = 10 to 20%

response.value for `CCCCCOc1ccc(NC(=O)c2ccn3c(C)cc(C)nc23)cc1` (field: activation at 0.1 µM) = > 20%

response.value for Cc1cc(C)n2ccc(C(=O)NC3CCc4ccccc4C3)c2n1 (stereo not shown) (field: activation at 0.1 µM) = > 20%

response.value for Cc1cc(C(F)(F)F)nc2c(C(=O)NC3(C)CCCc4ncncc43)ccn12 (stereo not shown) (field: activation at 0.1 µM) = < 10%

response.value for `CCCCO[C@H]1CC[C@H](NC(=O)c2ccn3c(C)cc(C)nc23)CC1` (field: activation at 0.1 µM) = > 20%

response.value for `C#Cc1ccc(NC(=O)c2ccn3c(C)cc(C)nc23)c(OCCOC)c1` (field: activation at 0.1 µM) = > 20%

response.value for `CC(C)c1ccnc2c(C(=O)N[C@H]3CCCc4ccccc43)ccn12` (field: activation at 0.1 µM) = < 10%

response.value for `Cc1cc(C)n2ccc(C(=O)Nc3cnc(-c4ncccn4)c(Cl)c3)c2n1` (field: activation at 0.1 µM) = < 10%

response.value for `CCCCO[C@H]1CC[C@H](NC(=O)c2ccn3c(C4CC4)cc(C)nc23)CC1` (field: activation at 0.1 µM) = 10 to 20%

response.value for `Cc1cc(C)n2ccc(C(=O)Nc3ccc(-c4cnn(C)c4)cc3)c2n1` (field: activation at 0.1 µM) = > 20%

response.value for Cc1ccnc2c(C(=O)NC3(C)CCCc4ccccc43)ccn12 (stereo not shown) (field: activation at 0.1 µM) = > 20%

response.value for `Cc1ccnc2c(C(=O)NC(C)(C)c3ccccc3)ccn12` (field: activation at 0.1 µM) = < 10%

response.value for `C#Cc1cccc(C(C)(C)NC(=O)c2ccn3c(COC)cc(C)nc23)c1` (field: activation at 0.1 µM) = 10 to 20%

response.value for Cc1cc(C)n2ccc(C(=O)NC3Cc4ccc(-c5cscn5)cc4C3)c2n1 (stereo not shown) (field: activation at 0.1 µM) = > 20%

response.value for `COCc1cc(C)n2ccc(C(=O)N[C@H]3CCCc4ccccc43)c2n1` (field: activation at 0.1 µM) = > 20%

---

Let's look at some molecules and their measured solubility.
# Method: Compound solubility in water
# Test conditions: water, Compound Solubility in Water
Write the number in µg/mL without appending the unit.

Please review the entries below; each comes with its answer.
> print(dat)
                                   molecule  value.units  value.observed
1   Cc1cc(C)n2ccc(C(=O)NC3CCC(F)(F)CC3)c2n1        µg/mL             1.6
2  Cc1cc(C2CC2)n2ccc(C(=O)N[C@H]3CC[C@H](OCCCCC(F)(F)F)CC3)c2n1        µg/mL             0.3
3  Cc1cc(C)n2ccc(C(=O)Nc3ccc(-c4cnn(C)c4)nc3)c2n1        µg/mL             0.2

// switching to the query molecule
response.value for `C#Cc1ccc(C(C)(C)NC(=O)c2ccn3c(C)cc(COC)nc23)cc1` (field: solubility) = 2.5

---

# Study target: glucocerebrosidase (Gcase) (Homo sapiens, UniProt P04062)
# Construct: micellar solution containing 10 nM GCase and 100 nM saposin C
# Sequence (P04062 40-536): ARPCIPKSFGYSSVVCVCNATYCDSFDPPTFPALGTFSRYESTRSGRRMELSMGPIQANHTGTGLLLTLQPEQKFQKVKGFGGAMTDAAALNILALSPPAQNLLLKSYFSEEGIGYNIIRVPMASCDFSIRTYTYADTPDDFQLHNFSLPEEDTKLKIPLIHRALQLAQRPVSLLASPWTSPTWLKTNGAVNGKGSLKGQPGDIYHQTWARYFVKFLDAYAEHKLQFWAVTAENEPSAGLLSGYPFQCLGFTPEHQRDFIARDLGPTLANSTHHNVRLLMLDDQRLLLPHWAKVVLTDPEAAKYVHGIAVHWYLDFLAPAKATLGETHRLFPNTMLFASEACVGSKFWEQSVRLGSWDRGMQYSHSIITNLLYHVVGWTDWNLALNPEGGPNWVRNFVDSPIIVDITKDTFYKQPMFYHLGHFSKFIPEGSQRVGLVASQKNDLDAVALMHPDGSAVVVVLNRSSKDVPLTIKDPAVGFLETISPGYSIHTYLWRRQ
# Method: Glucocerebrosidase (Gcase) activation assay, 4-methylumbelliferyl-beta-D-glucopyranoside substrate, fluorescence readout
# Type: biochemical
# Test conditions: test compound at 0.1 μM; read-out: Percent Gcase Activation, 0.1 μM Test Compound
Readout: activation at 0.1 µM

> print(dat)
                                   molecule  value.observed
1  Cc1cc(C)n2ccc(C(=O)NC34CCC(CC3)c3ccccc34)c2n1 [III-126]           > 20%
2  Cc1cc(O)n2ccc(C(=O)Nc3ccc(-c4cocn4)cc3)c2n1 [III-55]           < 10%
3  Cc1cc(C)n2ccc(C(=O)NC3CCC4OCOC4C3)c2n1 (centres unmarked) [III-229]           < 10%
4  Cc1cc(C)n2ccc(C(=O)Nc3ccc(Cl)c(-c4cnco4)c3)c2n1 [III-214]           > 20%
5  CCCCO[C@H]1CC[C@H](NC(=O)c2ccn3c(C)cc(C(F)F)nc23)CC1 [III-67]           > 20%

response.value for C#Cc1cccc(C(C)(C)NC(=O)c2ccn3c(C)cc(COC)nc23)c1 [III-64] (field: activation at 0.1 µM) = > 20%

response.value for Cc1cc(C)n2ccc(C(=O)NC3COCc4ccccc43)c2n1 (centres unmarked) [III-210] (field: activation at 0.1 µM) = 10 to 20%

response.value for Cc1cc(C)n2ccc(C(=O)NC3(C)CCOc4cccc(F)c43)c2n1 (centres unmarked) [III-118] (field: activation at 0.1 µM) = > 20%
